# assay_remarks: chemical genetic growth profiling, strain panel (AID 1159580);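 also: tested at 20 µM; growth read once vehicle control cultures reached saturation at 30 °C; 1 = growth at the plate median or of vehicle wells; lower values mean less growth of the strain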
# recorded_conditions: S. cerevisiae deletion strains, growth OD, locus YPR111W, strain DBF20, active compounds read low
Screen size: about 5,500 compounds; about 2,000 (36%) were called active. Not shown: some 18% with an inconclusive outcome. Some of the results follow.
The molecules listed here are annotated with their normalized growth.

{"molecule": "COc1cc(Cl)ccc1N/N=C(/C#N)C(N)=O", "normalized growth": 0.108}
{"molecule": "Fc1cc(I)ccc1Nc1ccnc2cc(Cl)ccc12", "normalized growth": 0.972}
{"molecule": "O=C(NCc1ccc(Cl)c(Cl)c1)c1cccnc1OCC(F)(F)F", "normalized growth": 0.958}
{"molecule": "O=[N+]([O-])c1ccc(-c2noc(-c3ccno3)n2)o1", "normalized growth": 0.149}
{"molecule": "COc1cccc(C2CCN(C(=O)c3cccc4ccccc34)CC2)c1", "normalized growth": 0.975}
{"molecule": "Cc1c(C(=O)Sc2ccc(F)cc2F)sc2nc(C(F)(F)F)nn12", "normalized growth": 0.169}
{"molecule": "CC(C)(C)c1ccc(N/N=C(\\C#N)C(N)=O)cc1", "normalized growth": 0.131}
{"molecule": "Cc1nn(C)c(C(=O)Sc2ccc(OC(F)(F)F)cc2)c1[N+](=O)[O-]", "normalized growth": 0.932}
{"molecule": "CC(C)(C)c1ccc(C(=N)SC(C(=O)C(F)(F)F)c2ccccc2)cc1 (stereo not drawn)", "normalized growth": 0.977}
{"molecule": "Cc1cccc(NC(=S)N/N=C\\c2ccc(F)cc2)c1", "normalized growth": 0.965}
{"molecule": "Cc1cc(C(=O)NNS(=O)(=O)c2ccc(F)c(Cl)c2)nn1-c1c(Cl)cc(Cl)cc1Cl", "normalized growth": 0.964}
{"molecule": "C/C(Cc1nnn(-c2cc(C)on2)n1)=N/OC(=O)Nc1ccc(Cl)cc1", "normalized growth": 0.975}
{"molecule": "N#C/C(=N/Nc1ccccc1)C(=O)c1ccccc1OC(F)(F)F", "normalized growth": 0.904}

###

Listed next: entries and their corresponding normalized growth.
# assay_remarks: chemical genetic growth profiling, strain panel (AID 1159580);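 also: tested at 20 µM; growth read once vehicle control cultures reached saturation at 30 °C; 1 = growth at the plate median or of vehicle wells; lower values mean less growth of the strain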
# recorded_conditions: S. cerevisiae deletion strains, growth OD, locus YLR027C, strain aat2, active compounds read low
Screen size: about 5,500 compounds; about 2,000 (36%) were called active. Not shown: some 18% with an inconclusive outcome. Some of the results follow.

{"compound": "COc1ccc(C(c2ccc(OC)cc2)C(Cl)(Cl)Cl)cc1", "normalized growth": 1.02}
{"compound": "C/C=C(\\C)C(=O)O[C@H]1C[C@@H](OC(C)=O)[C@@]2(C(=O)OC)CO[C@@H]3C2[C@]12CO[C@](O)(C(=O)OC)[C@H]2[C@](C)(C12O[C@@]1(C)[C@H]1C[C@@H]2OC2OC=C[C@@]21O)[C@@H]3O (some centres not stated)", "normalized growth": 0.991}
{"compound": "COc1ccc(-c2coc3cc(O)ccc3c2=O)c(OC)c1O", "normalized growth": 0.976}
{"compound": "Clc1ccc(C(c2ccc(Cl)cc2)C(Cl)(Cl)Cl)cc1", "normalized growth": 1.01}
{"compound": "CN1C2CCC1CC(OC(c1ccccc1)c1ccccc1)C2 (configuration not stated)", "normalized growth": 0.989}
{"compound": "CN1C2CCC1CC(OC(c1ccccc1)c1ccccc1N)C2 (configuration not stated)", "normalized growth": 0.986}
{"compound": "N=c1ccn2c(n1)OC1C(O)C(CO)OC12 (configuration not stated)", "normalized growth": 1.01}
{"compound": "COc1cc2nc(N(C)CCCNC(=O)C3CCCO3)nc(N)c2cc1OC (configuration not stated)", "normalized growth": 0.991}
{"compound": "COc1cc([C@@H]2c3cc4c(cc3[C@@H](O)C3COC(=O)C32)OCO4)cc(OC)c1O (some centres not stated)", "normalized growth": 0.991}
{"compound": "O=C1NCC2(CCN(CCc3ccccc3)CC2)O1", "normalized growth": 0.995}
{"compound": "COc1ccc(-c2coc3cc(O)ccc3c2=O)c(O)c1O", "normalized growth": 0.93}
{"compound": "COc1ccc(C(CN(C)C)C2(O)CCCCC2)cc1 (configuration not stated)", "normalized growth": 0.989}
{"compound": "CC1COc2c(N3CCN(C)CC3)c(F)cc3c(=O)c(C(=O)O)cn1c23 (configuration not stated)", "normalized growth": 0.997}
{"compound": "COc1cc([C@@H]2c3cc4c(cc3C(OC3O[C@@H]5COC(C)O[C@H]5[C@H](O)[C@H]3O)C3COC(=O)[C@@H]32)OCO4)cc(OC)c1O (some centres not stated)", "normalized growth": 1.05}
{"compound": "O=c1c(-c2ccc(O)cc2)coc2cc(O)ccc12", "normalized growth": 0.973}
{"compound": "CC1CCc2cc(F)cc3c(=O)c(C(=O)O)cn1c23 (configuration not stated)", "normalized growth": 0.988}
{"compound": "CN(C)CCCC1(c2ccc(F)cc2)OCc2cc(C#N)ccc21 (configuration not stated)", "normalized growth": 0.98}
{"compound": "COC(=O)/C=C/C(C)=C/C=C/C(C)=C/C=C/C=C(C)/C=C/C=C(C)/C=C/C(=O)O", "normalized growth": 1.02}
{"compound": "Cc1ccccc1C(OCCN(C)C)c1ccccc1 (configuration not stated)", "normalized growth": 0.994}
{"compound": "c1ccc2c(c1)CCCC2C1=NCCN1 (configuration not stated)", "normalized growth": 1.02}
{"compound": "C[C@H]1COc2c(N3CCN(C)CC3)c(F)cc3c(=O)c(C(=O)O)cn1c23", "normalized growth": 1.03}
{"compound": "COc1ccc(C2CNC(=O)C2)cc1OC1CCCC1 (configuration not stated)", "normalized growth": 1.01}
